Numbers sourced from patent US20080300288A1.

Experiment: Cytotoxicity in mock-infected MT-4 cells
Type: cell-based
Details: human, uninfected (mock-infected) MT-4 cells
Experimental Endpoint: CC50

Example cases with answers are listed next.
{"Compound Smiles": "COC(=O)CCC/C=C(/c1cc(C)c2on(C)c(=O)c2c1)c1cc(C)c2oc(=O)n(C)c2c1", "CC50": "36.5 µM"}
{"Compound Smiles": "COC(=O)CCC/C=C(\\c1cccc(C#N)c1)c1cc(C)c2onc(OC)c2c1", "CC50": "4.69 µM"}
{"Compound Smiles": "COC(=O)CCC/C=C(/c1cc(C)c(OC)c(C(=O)OC)c1)c1cc(C)c2oc(=O)n(C)c2c1", "CC50": "28.2 µM"}
{"Compound Smiles": "COC(=O)c1cc(/C(=C\\CCN2CCOC2=O)c2ccc(OC)c(OC)c2)cc(C)c1OC", "CC50": "1.05 µM"}
{"Compound Smiles": "COC(=O)CCC/C=C(\\c1cccc(C#N)c1)c1cc(Cl)ccc1OC", "CC50": "≥ 45.1 µM"}
{"Compound Smiles": "COC(=O)CCC/C=C(/c1cc(Cl)c(OC)c(C(=O)OC)c1)c1cc(C)c2oc(=O)n(C)c2c1", "CC50": "29.7 µM"}
{"Compound Smiles": "COC(=O)CCC/C=C(/c1ccc(OC)c(C(=O)OC)c1)c1cc(C)c2oc(=O)n(C)c2c1", "CC50": "115 µM"}
{"Compound Smiles": "COC(=O)CCC/C=C(\\c1cccc(C#N)c1)c1cc(Cl)c(OC)c(C(=O)OC)c1", "CC50": "213 µM"}

Turning now to a further compound:
Query: Can you share its CC50? I mean this compound: COC(=O)CCCC=C(c1cc(C)c2oc(=O)n(C)c2c1)c1cc(C)c2oc(=O)n(C)c2c1
Result: 32.5 µM

* * *

Assay: Cytotoxicity in mock-infected CEM-SS cells
Format: cell-based
Details: human, uninfected (mock-infected) CEM-SS cells
The compounds listed here are annotated with their log10 CC50.
All values: base-10 log of CC50 in µM.

Query: Can you share its log10 CC50? I mean this compound: COC(=O)CCC/C=C(/c1cc(C)c2on(C)c(=O)c2c1)c1cc(C)c2oc(=O)n(C)c2c1
Result: 1.05

Query: Can you share its log10 CC50? I mean this compound: COC(=O)CCC/C=C(\c1cccc(C#N)c1)c1cc(C)c2onc(OC)c2c1
Result: -0.10

Query: Can you share its log10 CC50? I mean this compound: COC(=O)c1cc(/C(=C/CCN2CCOC2=O)c2ccc(OC)c(OC)c2)cc(C)c1OC
Result: -0.22

Query: Can you share its log10 CC50? I mean this compound: COC(=O)CCC/C=C(\c1cccc(C#N)c1)c1cc(Cl)c(OC)c(C(=O)OC)c1
Result: 1.31

Query: Can you share its log10 CC50? I mean this compound: COC(=O)CCC/C=C(/c1cc(C)c2on(C)c(=O)c2c1)c1cc(Cl)ccc1OC
Result: 1.11

Query: Can you share its log10 CC50? I mean this compound: COC(=O)CCCC=C(c1cc(C)c2oc(=O)n(C)c2c1)c1cc(C)c2oc(=O)n(C)c2c1
Result: 1.49

Query: Can you share its log10 CC50? I mean this compound: COC(=O)CCC/C=C(/c1cc(F)cc(C(F)(F)F)c1)c1cc(C)c(OC)c(C(=O)OC)c1
Result: 0.97

Query: Can you share its log10 CC50? I mean this compound: COC(=O)CCC/C=C(\c1cc(F)cc(C(F)(F)F)c1)c1cc(Cl)c(OC)c(C(=O)OC)c1
Result: 1.21

Query: Can you share its log10 CC50? I mean this compound: COC(=O)CCC/C=C(/c1cc(Cl)c(OC)c(C(=O)OC)c1)c1cc(C)c2oc(=O)n(C)c2c1
Result: 0.98

Query: Can you share its log10 CC50? I mean this compound: COC(=O)CCC/C=C(/c1cc(C)c(OC)c(C(=O)OC)c1)c1cc(Cl)ccc1OC
Result: 0.90

Query: Can you share its log10 CC50? I mean this compound: COC(=O)CCC/C=C(/c1cc(Cl)c(OC)c(C(=O)OC)c1)c1cc(Cl)ccc1OC
Result: 1.19

Query: Can you share its log10 CC50? I mean this compound: COC(=O)c1cc(/C(=C\CCN2CCOC2=O)c2ccc(OC)c(OC)c2)cc(C)c1OC
Result: -0.31

Query: Can you share its log10 CC50? I mean this compound: COC(=O)c1cc(/C(=C\CCN2CCOC2=O)c2cc(F)cc(C(F)(F)F)c2)cc(C)c1OC
Result: 1.18

* * *

Assay: Cytotoxicity in mock-infected MT-4 cells
Assay type: cell-based
Conditions: human, uninfected (mock-infected) MT-4 cells
The compounds listed here are annotated with their CC50.
Field format: number, assumed µM, no unit text.

Example cases with answers are listed next.
{"Compound Smiles": "COC(=O)CCC/C=C(\\c1cc(F)cc(C(F)(F)F)c1)c1cc(C)c2oc(=O)n(C)c2c1", "Unit Descriptor": "µM", "CC50": 51}
{"Compound Smiles": "COC(=O)c1cc(/C(=C/CCN2CCOC2=O)c2ccc(OC)c(OC)c2)cc(C)c1OC", "Unit Descriptor": "µM", "CC50": 83.1}
{"Compound Smiles": "COC(=O)CCC/C=C(\\c1cc(F)cc(C(F)(F)F)c1)c1cc(C)c(OC)c(C(=O)OC)c1", "Unit Descriptor": "µM", "CC50": 5.7}
{"Compound Smiles": "COC(=O)CCC/C=C(\\c1cc(F)cc(C(F)(F)F)c1)c1cc(C)c2on(C)c(=O)c2c1", "Unit Descriptor": "µM", "CC50": 39.8}

Query: Can you share its CC50? I mean this compound: COC(=O)CCC/C=C(/c1cc(F)cc(C(F)(F)F)c1)c1cc(C)c(OC)c(C(=O)OC)c1
Result: 113
